Test: AUC (0 to t) in male Sprague-Dawley rat at 5 mg/kg, po measured by LC-MS/MS analysis
Format: ADME, organism-based
Design: dose 5 mg/kg, route po
Conditions: in vivo
Exercise: for every item that follows, state its recorded AUC(0-t).
Numbers only, in ng·h/mL.

Task: Fill blank: measured AUC(0-t) of the molecule O=C(O)c1ccc2c(c1)Oc1ccc(OCc3c(-c4c(Cl)cccc4Cl)noc3C3CC3)nc1CC2 is ____.
Result: 1250

Required: AUC(0-t), one value per molecule below.
1. CC1Cc2ccc(C(=O)O)cc2Oc2ccc(OCc3c(-c4c(Cl)cccc4Cl)noc3C3CC3)nc21 (centres undefined)
2. CC1=Cc2ccc(C(=O)O)cc2Oc2ccc(OCc3c(-c4c(Cl)cccc4Cl)noc3C3CC3)nc21
3. O=C(O)c1ccc2c(c1)Oc1ccc(OCc3c(-c4c(Cl)cccc4Cl)noc3C3CC3)nc1C1(CC1)C2

Result:
2230
1180
1180

###

Target: Estrogen receptor (Homo sapiens, UniProt P03372)
Sequence (P03372 whole entry): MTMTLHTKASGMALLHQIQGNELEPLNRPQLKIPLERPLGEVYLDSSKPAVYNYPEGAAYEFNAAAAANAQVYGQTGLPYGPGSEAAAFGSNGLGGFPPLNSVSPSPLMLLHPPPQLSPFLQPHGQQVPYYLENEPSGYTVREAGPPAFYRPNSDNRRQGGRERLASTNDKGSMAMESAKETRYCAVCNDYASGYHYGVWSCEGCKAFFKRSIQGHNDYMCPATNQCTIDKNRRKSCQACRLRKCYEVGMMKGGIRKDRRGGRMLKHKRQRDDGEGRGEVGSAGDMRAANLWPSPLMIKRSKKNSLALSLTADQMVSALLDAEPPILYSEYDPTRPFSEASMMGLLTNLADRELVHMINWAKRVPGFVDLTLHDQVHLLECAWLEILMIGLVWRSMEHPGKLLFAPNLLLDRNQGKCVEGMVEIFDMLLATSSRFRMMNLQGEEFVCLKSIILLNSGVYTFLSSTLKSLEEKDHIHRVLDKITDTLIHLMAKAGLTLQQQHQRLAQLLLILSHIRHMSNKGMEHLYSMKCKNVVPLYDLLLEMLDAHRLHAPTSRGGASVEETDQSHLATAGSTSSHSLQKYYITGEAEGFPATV
Test: Agonist activity at estrogen receptor alpha (unknown origin)
measured_property: EC50

Task: Fill blank: measured EC50 of the compound O=C(O)c1ccc2c(c1)Oc1ccc(OCc3c(-c4c(Cl)cccc4Cl)noc3C3CC3)nc1C1(CC1)C2 is ____.
Result: > 10 µM

###

Target: Estrogen receptor beta (Homo sapiens, UniProt Q92731)
Sequence (Q92731 whole entry): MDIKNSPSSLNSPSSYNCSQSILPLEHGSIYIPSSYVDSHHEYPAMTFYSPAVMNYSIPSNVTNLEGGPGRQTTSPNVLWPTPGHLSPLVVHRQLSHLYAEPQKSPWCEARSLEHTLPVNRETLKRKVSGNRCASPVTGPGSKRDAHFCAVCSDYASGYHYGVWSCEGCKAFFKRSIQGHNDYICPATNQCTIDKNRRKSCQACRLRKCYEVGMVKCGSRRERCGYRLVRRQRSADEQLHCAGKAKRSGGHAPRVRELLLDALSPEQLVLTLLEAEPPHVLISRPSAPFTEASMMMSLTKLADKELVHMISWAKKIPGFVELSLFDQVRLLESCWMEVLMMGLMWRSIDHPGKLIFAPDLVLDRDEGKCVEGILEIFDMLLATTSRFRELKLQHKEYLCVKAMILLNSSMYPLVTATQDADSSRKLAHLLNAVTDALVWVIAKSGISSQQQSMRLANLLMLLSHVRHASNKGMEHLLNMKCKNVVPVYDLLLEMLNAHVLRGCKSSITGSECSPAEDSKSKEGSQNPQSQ
Test: Agonist activity at estrogen receptor beta (unknown origin)
pEC50: −log10 of the molar value.
measured_property: pEC50

Task: Fill blank: measured pEC50 of the molecule O=C(O)c1ccc2c(c1)Oc1ccc(OCc3c(-c4c(Cl)cccc4Cl)noc3C3CC3)nc1C1(CC1)C2 is ____.
Result: < 5.00

###

Target: Peroxisome proliferator-activated receptor alpha (Homo sapiens, UniProt Q07869)
Sequence (Q07869 whole entry): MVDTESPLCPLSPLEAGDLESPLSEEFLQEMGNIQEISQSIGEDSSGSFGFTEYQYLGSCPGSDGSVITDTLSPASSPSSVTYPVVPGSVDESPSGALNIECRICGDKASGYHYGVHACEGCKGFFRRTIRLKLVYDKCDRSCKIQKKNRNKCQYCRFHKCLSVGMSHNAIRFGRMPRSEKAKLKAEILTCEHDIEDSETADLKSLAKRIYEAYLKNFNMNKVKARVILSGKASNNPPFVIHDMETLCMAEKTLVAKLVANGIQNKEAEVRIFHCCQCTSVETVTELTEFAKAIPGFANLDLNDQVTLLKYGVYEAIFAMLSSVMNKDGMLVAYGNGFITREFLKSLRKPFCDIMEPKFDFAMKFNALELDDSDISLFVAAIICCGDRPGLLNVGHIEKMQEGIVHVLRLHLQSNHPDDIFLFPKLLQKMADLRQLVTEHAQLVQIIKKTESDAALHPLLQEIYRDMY
Experiment: Agonist activity at PPARalpha (unknown origin)
measured_property: EC50

Task: Fill blank: measured EC50 of the molecule O=C(O)c1ccc2c(c1)Oc1ccc(OCc3c(-c4c(Cl)cccc4Cl)noc3C3CC3)nc1C1(CC1)C2 is ____.
Result: > 10 µM

###

Biological target: Voltage-gated inwardly rectifying potassium channel KCNH2 (Homo sapiens, UniProt Q12809)
Sequence (Q12809 whole entry): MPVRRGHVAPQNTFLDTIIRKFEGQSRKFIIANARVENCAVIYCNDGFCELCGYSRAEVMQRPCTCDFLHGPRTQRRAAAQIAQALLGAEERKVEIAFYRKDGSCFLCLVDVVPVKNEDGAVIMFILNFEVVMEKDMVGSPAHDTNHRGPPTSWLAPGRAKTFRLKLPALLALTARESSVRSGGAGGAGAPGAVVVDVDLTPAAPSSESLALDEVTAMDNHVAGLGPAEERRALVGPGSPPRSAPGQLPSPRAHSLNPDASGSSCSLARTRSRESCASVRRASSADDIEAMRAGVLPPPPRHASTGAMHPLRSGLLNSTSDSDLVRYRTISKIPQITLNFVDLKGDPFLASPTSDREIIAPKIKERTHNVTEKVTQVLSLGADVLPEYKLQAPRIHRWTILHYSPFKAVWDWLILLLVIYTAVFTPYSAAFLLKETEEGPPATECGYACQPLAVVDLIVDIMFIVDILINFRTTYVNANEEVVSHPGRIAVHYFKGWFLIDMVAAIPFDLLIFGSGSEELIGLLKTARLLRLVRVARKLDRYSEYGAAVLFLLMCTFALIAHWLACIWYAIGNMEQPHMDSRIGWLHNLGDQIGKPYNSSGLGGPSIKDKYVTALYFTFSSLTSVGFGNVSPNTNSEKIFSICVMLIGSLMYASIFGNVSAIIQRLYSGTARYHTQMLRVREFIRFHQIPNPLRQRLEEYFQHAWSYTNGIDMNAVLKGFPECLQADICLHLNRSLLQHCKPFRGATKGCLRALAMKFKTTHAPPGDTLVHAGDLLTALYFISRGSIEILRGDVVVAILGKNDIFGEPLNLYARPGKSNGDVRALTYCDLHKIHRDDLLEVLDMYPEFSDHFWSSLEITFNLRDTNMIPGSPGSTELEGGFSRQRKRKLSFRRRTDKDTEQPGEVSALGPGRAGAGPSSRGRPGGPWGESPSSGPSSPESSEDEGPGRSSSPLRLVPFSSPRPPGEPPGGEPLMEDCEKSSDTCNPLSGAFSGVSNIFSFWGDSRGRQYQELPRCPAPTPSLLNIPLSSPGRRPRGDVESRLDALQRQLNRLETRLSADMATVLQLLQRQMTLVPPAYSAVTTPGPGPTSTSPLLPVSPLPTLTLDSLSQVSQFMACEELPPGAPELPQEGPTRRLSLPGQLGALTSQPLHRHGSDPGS
pIC50: −log10 of the molar value.
measured_property: pIC50

Task: Fill blank: measured pIC50 of the molecule O=C(O)c1ccc2c(c1)Oc1ccc(OCc3c(-c4c(Cl)cccc4Cl)noc3C3CC3)nc1C1(CC1)C2 is ____.
Result: < 5.28
